# Test system: OVCAR-5 ovarian
# experiment.description: NCI-60 one-dose screen, 48 h (100 = growth as untreated, 0 = no growth, -100 = all killed)
# recorded.conditions: 10 µM
Compounds without any hit were thinned out: in the full panel of roughly 83,000, 20% have a hit.
API: label(entry) gives 1.0 if the entry's growth is strictly smaller than 80%; on equality or larger values it gives 0.0.

Below are worked cases with known answers.
compound | label.class
O=C(c1ccc(O)cc1)C1[C@H](c2ccccc2Br)[C@@H](c2ccccc2)NC12C(=O)Nc1ccc(Br)cc12 (stereo partly drawn) | 1.0
CN1CCN(c2ccc(Nc3nc(NCCCNC(=O)c4ccc(Cl)cc4)c4sccc4n3)cc2)CC1 | 0.0
Clc1ccc(/C=N/Nc2ncnc3sc4c(c23)CCN(Cc2ccccc2)C4)cc1 | 1.0
COc1ccc(CCN2C(=O)/C(=C/c3csc(C#N)n3)SC2=S)cc1 | 1.0
COc1cc(/C=C/C(=O)c2ccc(NC(=O)CN3C(=O)NC(C)(c4ccccc4)C3=O)cc2)cc(OC)c1OC (stereo not drawn) | 1.0

growth under 80%? Item: COC1CC(Cn2cc(COc3ccc4ccc(=O)oc4c3)nn2)C(OCc2ccccc2)C(OCc2ccccc2)C1OCc1ccccc1 (stereo not drawn)
0.0

growth under 80%? Item: CCOP(=O)(OCC)O[C@H]1CCC(=O)[C@@H]2[C@H]1[C@H]1C[C@@H]3[C@@]4(C)CCCC(C)(C(=O)OC)[C@@H]4CC[C@@]23C=C1C(C)C (stereo partly drawn)
0.0

growth under 80%? Item: `CC(=C(c1ccc(OCCCN(C)C)cc1)c1ccc(OCCCN(C)C)cc1)c1ccccc1`
1.0

----------
# Tested on: 786-0 renal
# experiment.description: NCI-60 one-dose screen, 48 h
# recorded.conditions: 10 µM
About 83,000 compounds went through this panel and 20% of them were active in at least one assay; those are over-represented in the sample as a whole. Active and inactive are the calls of the source. Rule for the calls: active = growth percent below 10; inactive = the rest.
Choose one outcome from this list and give only that: True for active, False for inactive

compound | label.class
COc1ccc2nc(Cl)c(-c3cc(-c4ccccc4)nc(=O)[nH]3)cc2c1 | False
O=c1[nH]c2ccc(Cl)cc2cc1CSc1ccc(Nc2nccc(-c3ccc4ccccc4c3)n2)cc1 | False
O=C(Cc1ccc2c(c1)CN(C1CCC(=O)NC1=O)C2=O)NCc1cccc2ccccc12 (stereo unspecified) | True
N#Cc1ccc(-c2nn(-c3ccc(C(=O)O)cc3)cc2CNc2ccc(Cl)cc2)cc1 | False
O=C(CSc1ccc(-c2ccc(Cl)cc2)nn1)Nc1ccc(Cl)c(C(F)(F)F)c1 | False

Which outcome did this test record for the compound O=C(c1ccc(Cl)cc1)C1[C@H](c2ccccc2Br)[C@@H](c2ccccc2)NC12C(=O)Nc1ccc(Br)cc12 (stereo partly specified) ?
True

Which outcome did this test record for the compound `O=C(CNc1nc(-c2ccccc2)cs1)Nc1cccc(Cl)c1` ?
False

Which outcome did this test record for the compound `O=C1Nc2cc(Cl)ccc2/C1=C/c1cccc(OCc2ccc(Br)cc2F)c1` ?
False

Which outcome did this test record for the compound `COc1ccc(C(=O)/C=C/c2ccc(Cl)c(C(F)(F)F)c2)cc1S(N)(=O)=O` ?
True

Which outcome did this test record for the compound `N#Cc1ccc(-c2nn(-c3ccc(C(=O)O)cc3)cc2CNc2cccc(Br)c2)cc1` ?
False

Which outcome did this test record for the compound `CC(=O)c1ccc(Nc2nc(SCCC(C)C)nc(-c3ccc(F)cc3)c2C#N)cc1` ?
True

Which outcome did this test record for the compound `COc1ccc(-c2nc(-c3ccccc3)c(-c3ccccc3)n2-c2ccc(S(=O)(=O)Nc3ncccn3)cc2)cc1OC` ?
False
